What plate-normalized OD600 growth was measured for each of the following?
test system: Escherichia coli BW25113; assay: plate-normalized OD600 growth (mean of duplicates) (OD600 (normalized)); higher = more growth (less inhibition); settings: temperature: 37°C; 24 h; 10 µM
In all, about 1,600 compounds were measured (“plate-normalized OD600 growth (mean of duplicates)”: median about 0.31, lowest 2% from about 0.23 on). What follows is part of a selection rich in the lowest values, with near analogues and random picks from the rest.
One number for each entry.

Examples with their reported plate-normalized OD600 growth follow.
* COc1ccc(CNC2C3CC4CC(C3)CC2C4)c(OC)c1 (stereo not drawn) | 0.615
* Cc1cc(C)n(-c2nc(-c3ccc(F)cc3)cs2)n1 | 0.625
* Cc1ccc(OCCCNC(C)(C)C)cc1 | 0.608

Record plate-normalized OD600 growth per entry; entries follow.
1. CN(CCc1ccccn1)Cc1ccc(Cl)c(Cl)c1
2. COc1ccc(NCc2ccc(Cl)cc2Cl)cc1OC
3. CCOc1ccc(Nc2nc(-c3ccc(C)c(C)c3)cs2)cc1
4. N#CC1=C(N)N2C(=C(C#N)C1c1c(F)cccc1Cl)Sc1ccccc12 (stereo not drawn)
5. O=C(Nc1ccc(Oc2ccc(NC(=O)c3cccnc3)cc2)cc1)c1cccnc1
6. O=[N+]([O-])c1ccccc1CNC1C2CC3CC(C2)CC1C3 (stereo not drawn)

1. 0.622
2. 0.625
3. 0.605
4. 0.622
5. 0.629
6. 0.612

I need plate-normalized OD600 growth for every entry listed below, if you could help.
1. Cc1cc(=O)[nH]c(SCC(=O)Nc2ccc(Br)cc2)c1C#N
2. COc1cccc(N2CCN(C3C4CC5CC(C4)CC3C5)CC2)c1 (stereo not drawn)

1: 0.594; 2: 0.627
